Listing of entries alongside the reported ID50 (50% inhibition of aminopeptidase B).
Biological target: aminopeptidase B (Rattus norvegicus)
Construct: an aminopeptidase B solution purified by using Sephadex G-100; from tissue; rat liver in the cited Hopsu et al. method (own knowledge)
Sequence (O09175 whole entry): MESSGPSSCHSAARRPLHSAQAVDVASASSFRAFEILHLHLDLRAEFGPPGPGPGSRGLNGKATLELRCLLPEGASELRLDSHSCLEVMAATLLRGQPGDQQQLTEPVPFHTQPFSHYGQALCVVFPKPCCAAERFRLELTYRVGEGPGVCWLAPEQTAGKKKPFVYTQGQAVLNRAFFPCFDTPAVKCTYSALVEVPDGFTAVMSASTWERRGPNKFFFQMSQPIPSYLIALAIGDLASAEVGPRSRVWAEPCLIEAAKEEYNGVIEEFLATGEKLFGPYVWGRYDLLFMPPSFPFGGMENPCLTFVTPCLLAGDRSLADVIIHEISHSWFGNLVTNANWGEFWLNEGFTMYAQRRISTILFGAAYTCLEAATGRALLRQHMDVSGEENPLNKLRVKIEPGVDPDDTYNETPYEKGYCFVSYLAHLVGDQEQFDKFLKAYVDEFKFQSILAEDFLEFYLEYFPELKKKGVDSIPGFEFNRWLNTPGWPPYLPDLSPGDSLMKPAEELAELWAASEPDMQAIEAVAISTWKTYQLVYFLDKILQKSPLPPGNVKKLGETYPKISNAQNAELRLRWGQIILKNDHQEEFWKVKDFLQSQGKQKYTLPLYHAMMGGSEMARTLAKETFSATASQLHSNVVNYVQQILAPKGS
Experiment: Inhibitory activity against aminopeptidase B (modified Hopsu et al. method, arginine-β-naphthylamide substrate)
Assay type: biochemical
Conditions: pH 7.0, 37° C., 30-minute reaction
PROPERTY_MEASURED: ID50 (50% inhibition of aminopeptidase B)

Cl.Cl.N=C(N)NCCC[C@H](NC(=O)[C@H](O)[C@H](N)Cc1ccccc1Cl)C(=O)O (racemic) [Example 4] | 0.14 μ g/ml
N=C(N)NCCC[C@H](NC(=O)[C@@H](O)[C@H](N)Cc1ccc(O)cc1)C(=O)O [Example 2] | 0.005 μ g/ml
CC(=O)O.CC(=O)O.Cc1ccc(CC(N)C(O)C(=O)NC(CCCN=C(N)N)C(=O)O)cc1 (racemic) [Example 3] | 0.013 μ g/ml
Cl.N=C(N)NCCC[C@H](NC(=O)[C@@H](O)[C@H](N)Cc1ccccc1)C(=O)O [Example 1] | 0.03 μ g/ml
